recordedConditions: buffer; pH 7.4; 200.0 µM
Kind request: treat 20 µg/mL as inclusive, so solubility kinetic at 20 µg/mL or higher is True, anything lower is False.

INSERT INTO results (molecule, class) VALUES
  ('Cc1cc(C)n2nc(SCC(=O)Nc3ccc(F)cc3[N+](=O)[O-])nc2n1', 'True'),
  ('COc1cccc(C(CNC(=O)c2ccc(Cl)c(S(=O)(=O)N3CCCC3)c2)N(C)C)c1 (stereo unspecified)', 'True'),
  ('CCOC(=O)/C(C#N)=C/C1=C(N2CCOCC2)CC(C)(C)OC1', 'True');

Inquiry: Item COc1cc(CO)ccc1Oc1nc2ccccc2n2cnnc12 with solubility kinetic of 20 µg/mL or above?
Reply text: True

Inquiry: Item O=C1NC(=O)/C(=C/c2ccc(-c3cccc([N+](=O)[O-])c3)o2)S1 with solubility kinetic of 20 µg/mL or above?
Reply text: False

Inquiry: Item CCOC(=O)C1CCCN(S(=O)(=O)c2c(C)noc2C)C1 (stereo unspecified) with solubility kinetic of 20 µg/mL or above?
Reply text: True

Inquiry: Item Cc1cc(NC(=O)c2cc([N+](=O)[O-])cc([N+](=O)[O-])c2C)no1 with solubility kinetic of 20 µg/mL or above?
Reply text: True

Inquiry: Item CC(=O)Nc1ccc(S(=O)(=O)N(C)CC(=O)OCC(=O)N2CCCCCC2)cc1 with solubility kinetic of 20 µg/mL or above?
Reply text: True

Inquiry: Item Cc1ccc(N(Cc2cc(=O)[nH]c3ccccc23)C(=O)CCl)c(C)c1 with solubility kinetic of 20 µg/mL or above?
Reply text: False

Inquiry: Item O=C(CCNC(=O)c1ccc(Cl)cc1)NCc1ccco1 with solubility kinetic of 20 µg/mL or above?
Reply text: True

----------
recordedConditions: buffer; pH 7.4; 200.0 µM
measurementLabel: solubility kinetic (µg/mL)
State just the number; it will be interpreted in µg/mL.

INSERT INTO results (compound, displayunit, assayresult) VALUES
  ('O=C(NCc1ccc2c(c1)OCO2)c1ccc(Br)s1', 'µg/mL', 1.9),
  ('NS(=O)(=O)c1cccc(Nc2nc3ccccc3nc2NS(=O)(=O)c2ccc(Cl)cc2)c1', 'µg/mL', 7.4),
  ('Cl.Fc1cccc(C2NCc3ccccc3-n3cccc32)c1 (stereo not given)', 'µg/mL', 30.6),
  ('Cc1ccccc1C(=O)O/N=C(\N)c1ccccc1', 'µg/mL', 34.3);

Inquiry: So what's the measured solubility kinetic for this one? CC(NC(=S)NC(=O)c1ccccc1)c1ccccc1 (stereo not given)
Reply text: 6.4

----------
recordedConditions: buffer; pH 7.4; 200.0 µM
Each entry below carries its recorded solubility kinetic.
State just the number; it will be interpreted in µg/mL.

Look over these answered cases.
INSERT INTO measurements (molecule, measurementlabel, displayunit, assayresult) VALUES
  ('Cc1ccc(C)c(S(=O)(=O)Nc2ccc3[nH]c(=O)[nH]c3c2)c1', 'solubility kinetic', 'µg/mL', 10.4),
  ('COc1ccccc1CCC(=O)Nc1ncc(C)s1', 'solubility kinetic', 'µg/mL', 2.5),
  ('Cc1cccn2c(=O)c3cc(C(=O)NCC(C)C)sc3nc12', 'solubility kinetic', 'µg/mL', 1.2),
  ('CC(=O)c1ccc(NC(=O)C2(c3ccccc3)CC2(Cl)Cl)cc1 (configuration not stated)', 'solubility kinetic', 'µg/mL', 19.6),
  ('Cc1ccc(S(=O)(=O)CCC(=O)Nc2cccc(Cl)c2)cc1', 'solubility kinetic', 'µg/mL', 23.9),
  ('COc1ccc(S(=O)(=O)NCCN2CCNC2=O)cc1OC', 'solubility kinetic', 'µg/mL', 47.9),
  ('Cc1cccc(C(=O)NCC(C)NC(=O)c2cccc(C)c2)c1 (configuration not stated)', 'solubility kinetic', 'µg/mL', 23.7);

Now, please, on to the next molecule.
Inquiry: So what's the measured solubility kinetic for this one? COc1ccc(-c2cc(C(=O)NC3CCCC3)c3ccccc3n2)cc1OC
Reply text: 1.6

----------
recordedConditions: buffer; pH 7.4; 200.0 µM
measurementLabel: solubility kinetic (µg/mL)
State just the number; it will be interpreted in µg/mL.

INSERT INTO assay_data (molecule, assayresult) VALUES
  ('CCOC(=O)C1CCCN(CC(=O)Nc2cccc(C(C)=O)c2)C1 (configuration not stated)', 46);

Inquiry: So what's the measured solubility kinetic for this one? CCOC(=O)C1CCN(S(=O)(=O)c2ccc(Cl)nc2)CC1
Reply text: 47.3

Inquiry: So what's the measured solubility kinetic for this one? NC(=S)Nc1nc2ccccc2s1
Reply text: 25.8

Inquiry: So what's the measured solubility kinetic for this one? Cn1c(N)c(C(=O)COC(=O)c2ccccc2C(=O)c2ccc(Cl)cc2)c(=O)n(C)c1=O
Reply text: 6.3

Inquiry: So what's the measured solubility kinetic for this one? CCN(CC)Cc1ccccn1.Cl
Reply text: 29.2

Inquiry: So what's the measured solubility kinetic for this one? O=C(O)c1cccc([N+](=O)[O-])c1C(=O)Nc1cccc2ccccc12
Reply text: 39.5

----------
recordedConditions: buffer; pH 7.4; 200.0 µM
Kind request: treat 5 µg/mL as inclusive, so solubility kinetic at 5 µg/mL or higher is Condition met, anything lower is Condition not met.

Consider the worked cases shown below.
INSERT INTO assay_data (compound, class) VALUES
  ('CC(=O)C1=C(C)NC(=S)NC1c1cccc([N+](=O)[O-])c1 (configuration not stated)', 'Condition not met'),
  ('COc1ccc(NC(=S)Nc2cc(C(F)(F)F)ccc2F)cc1', 'Condition met'),
  ('CC(=O)N1CCN(C(=O)c2cc3c(s2)CCCC3)CC1', 'Condition met'),
  ('CCCC/C(O)=C1\C(=O)CCCC1=NCCc1c(C)[nH]c2ccccc12', 'Condition met'),
  ('O=C(NC12CC3CC(CC(C3)C1)C2)c1ccc([N+](=O)[O-])cc1', 'Condition met');

Inquiry: Item C#CC1(NC(=O)NC(=O)c2c(F)cccc2F)CCCCC1 with solubility kinetic of 5 µg/mL or above?
Reply text: Condition not met

Inquiry: Item CCOc1ccc(/C=C/C(=O)N2CCOCC2)cc1OC with solubility kinetic of 5 µg/mL or above?
Reply text: Condition met

Inquiry: Item O=C(Nc1ccc(Cl)cc1)Nc1ccc(-c2cnco2)cc1 with solubility kinetic of 5 µg/mL or above?
Reply text: Condition not met

Inquiry: Item CS(=O)(=O)N1Cc2ccccc2CC1C(=O)O (configuration not stated) with solubility kinetic of 5 µg/mL or above?
Reply text: Condition met

Inquiry: Item Cc1cc(C(=O)Cn2c(CO)nc3ccccc32)c(C)n1C with solubility kinetic of 5 µg/mL or above?
Reply text: Condition met

----------
recordedConditions: buffer; pH 7.4; 200.0 µM
Kind request: treat 10 µg/mL as inclusive, so solubility kinetic at 10 µg/mL or higher is class 1, anything lower is class 0.

INSERT INTO assay_data (compound, class) VALUES
  ('CC(=O)c1ccc(S(=O)(=O)NCC(=O)NC(c2nc3ccccc3[nH]2)C(C)C)cc1 (stereo not given)', 'class 1');

Inquiry: Item COc1ccc(C(=O)NC23CC4CC(CC(C4)C2)C3)cc1 with solubility kinetic of 10 µg/mL or above?
Reply text: class 0

Inquiry: Item Cc1cccc(-n2c(O)c(C=NCCN3CCNCC3)c(=O)[nH]c2=S)c1 with solubility kinetic of 10 µg/mL or above?
Reply text: class 1

Inquiry: Item O=C(Nc1ccc2c(c1)OCCO2)C1CC(c2ccc(F)cc2)=NO1 (stereo not given) with solubility kinetic of 10 µg/mL or above?
Reply text: class 0

Inquiry: Item COC(=O)CSc1nc(C)cc(N2CCOCC2)n1 with solubility kinetic of 10 µg/mL or above?
Reply text: class 1

Inquiry: Item O=C(Nc1ccccc1Cl)c1ccc(-c2ccccn2)s1 with solubility kinetic of 10 µg/mL or above?
Reply text: class 0

Inquiry: Item CC(O)Cn1cnc2c1c(=O)n(C)c(=O)n2C (stereo not given) with solubility kinetic of 10 µg/mL or above?
Reply text: class 1

----------
recordedConditions: buffer; pH 7.4; 200.0 µM
Each entry below carries its recorded solubility kinetic.
State just the number; it will be interpreted in µg/mL.

Look over these answered cases.
INSERT INTO results (compound, assayresult) VALUES
  ('N#CC1=C(N)Oc2cc(N)ccc2C1c1ccccc1Cl (configuration not stated)', 32.9),
  ('NC1=NC(=O)/C(=C\c2ccsc2)S1', 28.6),
  ('COc1ccc(S(=O)(=O)N2CCOCC2)cc1NC(=O)COC(=O)c1ccc([N+](=O)[O-])s1', 14),
  ('CCOc1cc(CN2CCCCCC2)ccc1OC', 27.4),
  ('Cc1cc(C)cc(OCC(=O)OCC(=O)Nc2cc(S(=O)(=O)N3CCOCC3)ccc2Cl)c1', 41.6);

Inquiry: So what's the measured solubility kinetic for this one? CN(CCOc1ccc(CC2SC(=O)NC2=O)cc1)c1ccccn1.O=C(O)/C=C\C(=O)O (configuration not stated)
Reply text: 68.2

Inquiry: So what's the measured solubility kinetic for this one? Nc1nonc1C(=O)N1CCCCC1
Reply text: 28.2
